Molecular target: T1, VV B5 monomer protein (Wyeth Vaccinia strain B5 with C-terminal AVI tag and HIS6 tag) (Vaccinia virus, Wyeth strain, UniProt O57254 18-279)
T1 construct: also called B5 protein; VV B5 protein
Assay: ELISA, B5 monomer coated
measured-attribute: pEC50
When answering, recall that pEC50 equals minus log10 of the concentration in mol/L, and write that number alone.

Give the reported value of pEC50 for this record: A048-H2L1 (antibody, V domains shown) VH: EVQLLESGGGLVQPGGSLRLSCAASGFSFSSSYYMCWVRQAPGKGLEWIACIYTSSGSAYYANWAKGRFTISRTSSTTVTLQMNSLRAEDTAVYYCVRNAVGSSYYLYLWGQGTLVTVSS VL: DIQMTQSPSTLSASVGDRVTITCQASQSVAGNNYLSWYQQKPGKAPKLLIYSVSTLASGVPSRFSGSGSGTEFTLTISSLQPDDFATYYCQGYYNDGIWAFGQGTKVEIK
10.01

Give the reported value of pEC50 for this record: A048 parental (antibody, V domains shown, also called A048 rabbit parental antibody; A048 parental anti-B5 hIgG1) VH: QEQLEESGGGLVKPEGSLTLTCTASGFSFSSSYYMCWVRQAPGRGLEWIACIYTSSGSAYYANWAKGRFTISRTSSTTVTLQMTRLTAADTATYFCVRNAVGSSYYLYLWGPGTLVTVSS VL: AQVLTQTPSPVSAAVGGTVTISCQASQSVAGNNYLSWYQQKPGQPPNLLIYSVSTLASGVPSRFKGSGSGTQFTLTISDLECDDAATYYCQGYYNDGIWAFGGGTEVVVK
9.94

Give the reported value of pEC50 for this record: A048-H1L4 (antibody, V domains shown) VH: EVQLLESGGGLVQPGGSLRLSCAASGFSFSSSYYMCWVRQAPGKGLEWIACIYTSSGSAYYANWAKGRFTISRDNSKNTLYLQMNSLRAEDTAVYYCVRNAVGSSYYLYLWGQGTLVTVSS VL: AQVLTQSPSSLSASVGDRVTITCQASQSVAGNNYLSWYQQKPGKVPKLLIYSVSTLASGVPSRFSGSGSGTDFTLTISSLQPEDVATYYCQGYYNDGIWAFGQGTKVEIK
9.99

Give the reported value of pEC50 for this record: A048-H5L5 (antibody, V domains shown) VH: QVTLKESGPVLVKPTETLTLTCTASGFSFSSSYYMCWVRQPPGKALEWIACIYTSSGSAYYANWAKGRFTISRDTSKSQVVLTMTNMDPVDTATYFCVRNAVGSSYYLYLWGQGTLVTVSS VL: EQVLTQSPATLSLSPGERATLSCQASQSVAGNNYLSWYQQKPGQAPRLLIYSVSTLASGIPARFSGSGSGTDFTLTISSLEPEDFAVYYCQGYYNDGIWAFGQGTKLEIK
9.98

Give the reported value of pEC50 for this record: A048-H1L3 (antibody, V domains shown) VH: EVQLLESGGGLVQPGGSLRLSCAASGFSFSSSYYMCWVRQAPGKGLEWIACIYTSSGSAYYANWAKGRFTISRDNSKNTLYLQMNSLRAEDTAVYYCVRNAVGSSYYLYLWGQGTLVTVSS VL: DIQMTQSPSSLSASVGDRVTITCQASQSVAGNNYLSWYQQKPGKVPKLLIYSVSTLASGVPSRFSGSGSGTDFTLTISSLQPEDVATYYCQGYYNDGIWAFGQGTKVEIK
10.10

Give the reported value of pEC50 for this record: A048-H4L3 (antibody, V domains shown) VH: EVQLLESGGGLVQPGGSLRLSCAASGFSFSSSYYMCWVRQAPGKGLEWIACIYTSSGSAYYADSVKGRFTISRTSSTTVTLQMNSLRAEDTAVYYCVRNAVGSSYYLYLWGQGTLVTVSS VL: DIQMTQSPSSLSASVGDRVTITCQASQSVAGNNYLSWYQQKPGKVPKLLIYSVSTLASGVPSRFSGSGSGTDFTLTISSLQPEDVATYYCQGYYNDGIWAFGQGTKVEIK
9.94

Give the reported value of pEC50 for this record: A048-H2L2 (antibody, V domains shown) VH: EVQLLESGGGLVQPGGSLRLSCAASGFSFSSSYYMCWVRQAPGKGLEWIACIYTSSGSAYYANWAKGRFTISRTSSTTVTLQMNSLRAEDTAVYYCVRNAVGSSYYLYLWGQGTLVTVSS VL: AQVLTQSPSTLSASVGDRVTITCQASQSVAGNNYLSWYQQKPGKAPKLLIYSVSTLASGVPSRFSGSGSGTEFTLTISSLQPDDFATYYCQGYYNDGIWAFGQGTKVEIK
10.04

Give the reported value of pEC50 for this record: A048-H3L4 (antibody, V domains shown) VH: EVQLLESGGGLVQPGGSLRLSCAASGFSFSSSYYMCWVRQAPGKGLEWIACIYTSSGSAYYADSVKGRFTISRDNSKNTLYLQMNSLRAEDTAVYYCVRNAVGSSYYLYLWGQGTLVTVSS VL: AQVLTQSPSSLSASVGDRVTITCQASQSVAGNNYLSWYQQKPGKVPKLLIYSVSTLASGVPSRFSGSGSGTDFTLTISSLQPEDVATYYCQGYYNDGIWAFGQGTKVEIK
9.97

Give the reported value of pEC50 for this record: A048-H3L1 (antibody, V domains shown) VH: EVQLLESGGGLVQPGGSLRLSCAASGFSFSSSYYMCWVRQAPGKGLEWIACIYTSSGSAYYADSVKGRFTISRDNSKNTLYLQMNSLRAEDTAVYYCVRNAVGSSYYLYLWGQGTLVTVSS VL: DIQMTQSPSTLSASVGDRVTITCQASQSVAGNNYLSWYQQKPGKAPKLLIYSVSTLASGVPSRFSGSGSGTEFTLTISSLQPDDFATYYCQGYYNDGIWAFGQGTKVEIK
10.07

Give the reported value of pEC50 for this record: A048-H3L3 (antibody, V domains shown) VH: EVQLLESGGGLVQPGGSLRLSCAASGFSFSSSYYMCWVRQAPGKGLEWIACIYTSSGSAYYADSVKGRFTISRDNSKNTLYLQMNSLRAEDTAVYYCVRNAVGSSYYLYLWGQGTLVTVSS VL: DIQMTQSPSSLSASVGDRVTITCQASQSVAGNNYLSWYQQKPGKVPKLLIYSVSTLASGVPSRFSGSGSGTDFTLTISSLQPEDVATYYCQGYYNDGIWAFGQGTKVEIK
10.01

Every entry's value here was drawn from patent US20240309070A1.
